# METHOD_NOTES: Differential scanning fluorimetry (protein thermal shift; TM1 Fc, TM2 Fab)
# Assay type: physicochemical
# STATED_CONDITIONS: melting temperature of the Fab domain; Table 11
In this section, each of the molecules is paired with its reported TM2.
Give just the numeric value; °C need not be written.

Give reported TM2 value for SRP2196-B03 (antibody, V domains shown) VH: EVQLVESGGGLAQPGGSLRLSCAASGFNITGYYIHWVRQAPGKGLEWVGYISPNSGATHYADSVKGRFTISADTSKNTAYLQMNSLRAEDTAVYYCARDSRRYVRPFDYWGQGTLVTVSS VL: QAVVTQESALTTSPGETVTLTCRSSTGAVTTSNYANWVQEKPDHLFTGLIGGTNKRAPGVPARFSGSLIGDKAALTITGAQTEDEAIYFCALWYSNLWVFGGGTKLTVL
71
